- System: T-47D breast
- TEST PROTOCOL: NCI-60 one-dose screen, 48 h (100 = growth as untreated, 0 = no growth, -100 = all killed)
- CONDITIONS USED: 10 µM unless noted
The panel holds about 83,000 compounds, 20% with a hit somewhere; the sample as a whole holds those more often.
Recorded growth values for a group of compounds are listed next.
RECORDED METRIC: growth (%)

O=C1c2cccc3cccc(c23)C(=O)N1Nc1nc(N2CCOCC2)nc(N2CCN(c3ccccc3)CC2)n1; 37.3
[O-][n+]1c2ccccc2[n+]([O-])c2c3ccccc3[nH]c21; 2.23
O=c1ccn(Cc2cn(-c3c4ccccc4nc4ccccc34)nn2)c(=O)[nH]1; 38
O=C1/C(=C/c2ccc(F)cc2)Sc2c(Br)cccc21; 43.4
